Data origin: paper PMC4774911

Target: CDK6 (Homo sapiens, UniProt Q00534)
Sequence (Q00534 whole entry): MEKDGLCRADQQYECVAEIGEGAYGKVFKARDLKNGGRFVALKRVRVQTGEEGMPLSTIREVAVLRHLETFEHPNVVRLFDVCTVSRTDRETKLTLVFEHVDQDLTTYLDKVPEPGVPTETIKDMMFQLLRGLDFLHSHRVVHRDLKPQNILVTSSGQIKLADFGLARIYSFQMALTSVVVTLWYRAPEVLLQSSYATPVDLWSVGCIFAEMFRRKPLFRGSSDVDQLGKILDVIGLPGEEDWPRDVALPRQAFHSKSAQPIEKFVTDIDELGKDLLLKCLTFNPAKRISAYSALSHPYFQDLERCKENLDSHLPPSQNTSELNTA
Assay: biochemical
RECORDED ENDPOINT: IC50

>  <COMPOUND>
Cl.NCC1(c2nc(-c3ccc(Cl)c(O)c3)c(-c3ccncc3)[nH]2)CCCCC1 [TCMDC-141154]

>  <RESULT>
> 20 µM

$$$$

###

Biological target: PIM2 (Homo sapiens, UniProt Q9P1W9)
Sequence (Q9P1W9 whole entry): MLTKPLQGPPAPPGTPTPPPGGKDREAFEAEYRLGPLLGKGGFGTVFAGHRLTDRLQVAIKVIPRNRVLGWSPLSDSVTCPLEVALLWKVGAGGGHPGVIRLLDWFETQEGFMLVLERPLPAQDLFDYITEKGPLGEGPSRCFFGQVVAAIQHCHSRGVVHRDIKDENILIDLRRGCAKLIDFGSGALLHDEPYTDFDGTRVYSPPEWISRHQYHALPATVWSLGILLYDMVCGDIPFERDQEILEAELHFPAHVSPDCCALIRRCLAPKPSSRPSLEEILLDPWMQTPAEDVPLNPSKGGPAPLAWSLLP
Assay: biochemical
Conditions: read-out: KDapp
pKd: −log10 of the molar value.

>  <SMILES TEXT>
CN1CCN(c2ccc(Nc3ncc(C#N)c(Nc4ccccc4C(N)=O)n3)cc2)CC1.Cl

>  <TARGET UNDER TEST>
PIM2 (Homo sapiens, UniProt Q9P1W9)

>  <pKd>
5.53

$$$$

###

Biological target: CDC2 (Homo sapiens)
Sequence (P06493 whole entry): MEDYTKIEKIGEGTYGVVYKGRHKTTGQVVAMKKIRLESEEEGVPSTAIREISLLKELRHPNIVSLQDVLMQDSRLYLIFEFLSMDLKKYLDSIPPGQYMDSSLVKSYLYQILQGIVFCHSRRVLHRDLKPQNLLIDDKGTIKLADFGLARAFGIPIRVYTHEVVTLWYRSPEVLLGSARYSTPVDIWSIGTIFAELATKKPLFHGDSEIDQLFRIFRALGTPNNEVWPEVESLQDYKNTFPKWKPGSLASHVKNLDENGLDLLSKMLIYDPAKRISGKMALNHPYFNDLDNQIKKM
Assay: biochemical
Details: read-out: KDapp

>  <SMILES TEXT>
CN1CCN(c2ccc(Nc3ncc(C#N)c(Nc4ccccc4C(N)=O)n3)cc2)CC1.Cl

>  <MEASUREMENT UNIT>
µM

>  <Kd>
1.21

$$$$

###

Molecular target: Plasmodium falciparum protein kinase 6 (PK6) (Plasmodium falciparum, UniProt Q8IDW1)
Construct: 6-Histidine (N); made in house
Sequence (Q8IDW1 1-305): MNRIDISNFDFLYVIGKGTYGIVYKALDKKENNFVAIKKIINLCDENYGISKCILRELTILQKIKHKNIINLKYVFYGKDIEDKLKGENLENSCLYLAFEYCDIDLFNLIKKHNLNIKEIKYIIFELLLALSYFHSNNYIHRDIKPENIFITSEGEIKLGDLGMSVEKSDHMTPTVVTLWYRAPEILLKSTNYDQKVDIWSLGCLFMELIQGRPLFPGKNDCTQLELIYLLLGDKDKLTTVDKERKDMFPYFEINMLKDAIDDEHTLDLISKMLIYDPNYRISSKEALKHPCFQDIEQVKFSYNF
Assay: biochemical
Details: hits below 1 uM; read-out: PK6 IC50

>  <SMILES TEXT>
CN1CCN(c2ccc(Nc3nccc(-c4cnn5ncccc45)n3)cc2Cl)CC1

>  <IC50>
179 nM

$$$$
>  <SMILES TEXT>
CN1CCN(c2ccc(Nc3ncc(C#N)c(Nc4ccccc4C(N)=O)n3)cc2)CC1.Cl

>  <IC50>
89 nM

$$$$
>  <SMILES TEXT>
CS(=O)(=O)Cc1ccc(Nc2nccc(-c3c(-c4cccc(NC(=O)C5CCCCC5)c4)nn4ncccc34)n2)cc1

>  <IC50>
139 nM

$$$$
>  <SMILES TEXT>
Cc1cc(Nc2nc(Nc3cccc(Cl)c3)nc3ccccc23)n[nH]1

>  <IC50>
151 nM

$$$$
>  <SMILES TEXT>
COc1ccc(Nc2ncc3c(-c4cccc(NC(=O)Cc5ccc(O)cc5)c4)c[nH]c3n2)cc1OC

>  <IC50>
445 nM

$$$$
>  <SMILES TEXT>
Cn1c(=O)c(-c2c(Cl)cccc2Cl)cc2cnc(Nc3ccc(N4CCOCC4)cc3)nc21

>  <IC50>
145 nM

$$$$
>  <SMILES TEXT>
Cc1cc(Nc2ncc(Cl)c(Nc3ccccc3C(N)=O)n2)n[nH]1

>  <IC50>
129 nM

$$$$
>  <SMILES TEXT>
CN(c1ccc2c(c1)nc(NCc1ccc(F)cc1)n2C)c1ccnc(Nc2ccc(CS(C)(=O)=O)cc2)n1.Cl

>  <IC50>
844 nM

$$$$
>  <SMILES TEXT>
NCCNS(=O)(=O)c1ccc(-c2ccnc3[nH]c(-c4ccncc4)cc23)cc1.O=C(O)C(F)(F)F

>  <IC50>
207 nM

$$$$
>  <SMILES TEXT>
Cn1nc(-c2ccc(NC(=O)Nc3ccc4ccccc4c3)c(F)c2)c2cnc(NCCN3CCOCC3)nc21.O=C(O)C(F)(F)F

>  <IC50>
860 nM

$$$$
>  <SMILES TEXT>
Cl.Nc1ncnc2occ(-c3ccc(NC(=O)Nc4cc(C(F)(F)F)ccc4F)cc3)c12

>  <IC50>
335 nM

$$$$
>  <SMILES TEXT>
Nc1ncc(-c2cccc(F)c2)cc1-c1nc2cc(F)ccc2[nH]1.O=C(O)C(F)(F)F

>  <IC50>
206 nM

$$$$
>  <SMILES TEXT>
O=C(O)C(F)(F)F.O=c1[nH]ccc2nc(N[C@@H]3CCCNC3)nc(Nc3ccc(S(=O)(=O)N4CCOCC4)cc3)c12

>  <IC50>
115 nM

$$$$
>  <SMILES TEXT>
CC(=O)Nc1ccc(Nc2ncc([N+](=O)[O-])c(Nc3ccccc3C(N)=O)n2)cc1.Cl

>  <IC50>
128 nM

$$$$

###

Molecular target: UniProt:Q5S007

>  <COMPOUND>
Cl.NCC1(c2nc(-c3ccc(Cl)c(O)c3)c(-c3ccncc3)[nH]2)CCCCC1 [TCMDC-141154]

>  <IC50>
> 20 µM

$$$$

###

Target: UniProt:Q8IW41
Sequence (Q8IW41 whole entry): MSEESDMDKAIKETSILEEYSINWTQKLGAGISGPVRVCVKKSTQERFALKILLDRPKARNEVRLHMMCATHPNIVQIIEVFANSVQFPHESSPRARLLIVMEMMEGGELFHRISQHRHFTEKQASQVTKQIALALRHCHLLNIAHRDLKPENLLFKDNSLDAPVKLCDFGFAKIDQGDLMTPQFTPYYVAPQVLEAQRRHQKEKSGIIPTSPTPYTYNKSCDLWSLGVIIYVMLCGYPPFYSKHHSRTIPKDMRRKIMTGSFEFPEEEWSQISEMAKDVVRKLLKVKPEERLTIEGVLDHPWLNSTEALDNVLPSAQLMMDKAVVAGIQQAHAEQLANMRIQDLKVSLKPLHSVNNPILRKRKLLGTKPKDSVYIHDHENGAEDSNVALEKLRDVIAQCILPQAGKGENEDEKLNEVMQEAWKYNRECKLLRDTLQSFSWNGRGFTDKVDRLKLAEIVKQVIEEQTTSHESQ
Assay: biochemical
Set-up: endogenous in cells; host or cells: K562 cell extract; species or system K562 (extract); replicate k of n = 2 (each experiment ID is one independent experiment; two experiment IDs per compound)
Settings: read-out: KDapp
pKd: −log10 of the molar value.

>  <COMPOUND>
CN(C)CC(O)COc1ccc(Nc2ncc([N+](=O)[O-])c(Nc3ccccc3O)n2)cc1.O=C(O)C(F)(F)F (stereo not shown)

>  <pKd>
6.54

$$$$

###

Biological target: FYN (Homo sapiens, UniProt P06241)
Sequence (P06241 whole entry): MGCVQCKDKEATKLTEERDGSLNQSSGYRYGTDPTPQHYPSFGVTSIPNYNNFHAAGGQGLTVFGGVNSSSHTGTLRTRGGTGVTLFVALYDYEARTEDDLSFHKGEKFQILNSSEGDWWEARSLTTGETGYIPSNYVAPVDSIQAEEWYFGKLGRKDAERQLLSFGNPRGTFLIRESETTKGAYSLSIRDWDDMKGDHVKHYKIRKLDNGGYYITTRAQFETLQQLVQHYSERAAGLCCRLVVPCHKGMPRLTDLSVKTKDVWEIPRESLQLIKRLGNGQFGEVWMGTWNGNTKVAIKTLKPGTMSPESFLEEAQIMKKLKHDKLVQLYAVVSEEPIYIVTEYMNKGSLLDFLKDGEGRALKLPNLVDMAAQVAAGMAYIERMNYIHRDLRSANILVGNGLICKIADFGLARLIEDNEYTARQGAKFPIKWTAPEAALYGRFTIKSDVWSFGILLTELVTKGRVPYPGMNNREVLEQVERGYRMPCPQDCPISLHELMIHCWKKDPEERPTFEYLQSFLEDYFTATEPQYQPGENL
Experiment: biochemical
pIC50: −log10 of the molar value.

>  <MOLECULE>
CN(C)CC(O)COc1ccc(Nc2ncc([N+](=O)[O-])c(Nc3ccccc3O)n2)cc1.O=C(O)C(F)(F)F (stereo not shown)

>  <TARGET UNDER TEST>
FYN (Homo sapiens, UniProt P06241)

>  <pIC50>
< 4.70

$$$$

###

Property: log10 of IC50; scope: individual compounds
Molecular target: Plasmodium falciparum calcium-dependent protein kinase 1 (CDPK1) (Plasmodium falciparum)
Construct: 6-Histidine (N); made in house
Sequence (P62344 whole entry): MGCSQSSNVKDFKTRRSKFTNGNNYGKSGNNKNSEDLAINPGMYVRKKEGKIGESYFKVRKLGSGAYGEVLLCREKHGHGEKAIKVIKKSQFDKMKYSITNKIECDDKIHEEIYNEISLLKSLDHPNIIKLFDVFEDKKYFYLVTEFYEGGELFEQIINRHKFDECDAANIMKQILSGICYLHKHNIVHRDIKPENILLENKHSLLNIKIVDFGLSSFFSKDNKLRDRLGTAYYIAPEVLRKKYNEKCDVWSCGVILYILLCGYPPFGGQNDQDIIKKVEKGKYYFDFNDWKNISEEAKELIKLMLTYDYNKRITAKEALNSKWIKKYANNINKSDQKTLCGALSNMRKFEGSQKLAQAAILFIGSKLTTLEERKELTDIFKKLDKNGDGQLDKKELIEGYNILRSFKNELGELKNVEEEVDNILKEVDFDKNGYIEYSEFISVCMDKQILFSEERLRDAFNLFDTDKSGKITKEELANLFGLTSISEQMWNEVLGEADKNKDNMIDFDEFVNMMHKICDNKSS
Assay: CDPK1 Kinase-Glo ATP-consumption screen and dose-response
Assay type: biochemical
Settings: hits below 1 uM; read-out: CDPK1 IC50
RECORDED ENDPOINT: log10 of IC50 (log10 of the value in nM)

>  <COMPOUND>
Oc1cccc(-c2cnc3ccc(NCc4ccc(F)cc4)nn23)c1

>  <RECORDED ENDPOINT>
log10 of IC50

>  <QUANTITATIVE RESULT>
2.06

$$$$
>  <COMPOUND>
CN(C)Cc1ccc(-c2ccc3c(Nc4ccc(Oc5ccccn5)cc4)ccnc3c2)o1

>  <RECORDED ENDPOINT>
log10 of IC50

>  <QUANTITATIVE RESULT>
2.71

$$$$
>  <COMPOUND>
CCn1c(-c2nonc2N)nc2c(-c3cccc(NC(=O)Nc4cccc(C#N)c4)c3)ncc(OCCCN)c21.O=C(O)C(F)(F)F

>  <RECORDED ENDPOINT>
log10 of IC50

>  <QUANTITATIVE RESULT>
2.26

$$$$
>  <COMPOUND>
CC(C)(CNC(=O)C1CCN(CCOc2ccc(F)c(F)c2)CC1)c1nc(-c2ccc(Cl)c(O)c2)c(-c2ccncc2)[nH]1.Cl

>  <RECORDED ENDPOINT>
log10 of IC50

>  <QUANTITATIVE RESULT>
2.82

$$$$
>  <COMPOUND>
CN1CCN(Cc2cccc(-c3ccc4c(Nc5cc(O)c(Cl)cc5F)ccnc4c3)c2)CC1

>  <RECORDED ENDPOINT>
log10 of IC50

>  <QUANTITATIVE RESULT>
2.88

$$$$
>  <COMPOUND>
COCCNCc1cccc(-c2ccc3c(Nc4ccc(Oc5cccnc5)cc4)ccnc3c2)c1

>  <RECORDED ENDPOINT>
log10 of IC50

>  <QUANTITATIVE RESULT>
2.96

$$$$
>  <COMPOUND>
CC(C)(C)CNCC(C)(C)c1nc(-c2ccc(Cl)c(O)c2)c(-c2ccncc2)[nH]1.Cl

>  <RECORDED ENDPOINT>
log10 of IC50

>  <QUANTITATIVE RESULT>
2.20

$$$$
>  <COMPOUND>
O=C(NC1CC1)c1ccc(Nc2nccc(-c3c(-c4cccc(NC(=O)c5c(F)cccc5F)c4)nn4ccccc34)n2)cc1

>  <RECORDED ENDPOINT>
log10 of IC50

>  <QUANTITATIVE RESULT>
1.41

$$$$
>  <COMPOUND>
O=CO.O=S1(=O)NCc2ccc(Nc3nccc(Nc4ccc5c(cnn5Cc5ccccc5)c4)n3)cc21

>  <RECORDED ENDPOINT>
log10 of IC50

>  <QUANTITATIVE RESULT>
2.04

$$$$
>  <COMPOUND>
OC1CCC(Nc2ccc3ncc(-c4ccc(Cl)cc4)n3n2)CC1 (stereo not drawn)

>  <RECORDED ENDPOINT>
log10 of IC50

>  <QUANTITATIVE RESULT>
2.70

$$$$
>  <COMPOUND>
O=C(NCCN1CCC(c2ccncc2)CC1)c1ccc(Nc2nccc(Nc3ccc(Oc4ccccc4)cc3)n2)cc1

>  <RECORDED ENDPOINT>
log10 of IC50

>  <QUANTITATIVE RESULT>
2.13

$$$$
>  <COMPOUND>
Cc1csc(-c2ncc(OC[C@@H](N)Cc3ccccc3)cc2-c2ccc3[nH]nc(C)c3c2)c1.O=C(O)C(F)(F)F

>  <RECORDED ENDPOINT>
log10 of IC50

>  <QUANTITATIVE RESULT>
1.64

$$$$
>  <COMPOUND>
COc1ccc(Nc2ncc3c(-c4cccc(NC(=O)Cc5ccc(O)cc5)c4)c[nH]c3n2)cc1OC

>  <RECORDED ENDPOINT>
log10 of IC50

>  <QUANTITATIVE RESULT>
1.99

$$$$
>  <COMPOUND>
COCCNCc1cccc(-c2ccc3c(Nc4ccc(Oc5ccccc5)cc4)ccnc3c2)c1

>  <RECORDED ENDPOINT>
log10 of IC50

>  <QUANTITATIVE RESULT>
2.99

$$$$
>  <COMPOUND>
COc1ccc(-c2cnc3ccc(NC4CCC(O)CC4)nn23)cn1 (stereo not drawn)

>  <RECORDED ENDPOINT>
log10 of IC50

>  <QUANTITATIVE RESULT>
2.58

$$$$
